Item-by-item account of melting point
Counter-ions that a name gives are not always drawn.

INSERT INTO assay_data (molecule, value_type, recorded_result) VALUES
  ('O=C(O)COc1c(-c2ccccc2)cc([N+](=O)[O-])cc1-c1ccccc1', 'melting point', '153.5 to 156 °C');

melting point recorded for this molecule, CCCCCCCCCCCCNC(=O)c1cc(-c2ccc(F)c(Cl)c2)c(OCC(=O)O)c(-c2ccc(F)c(Cl)c2)c1 (as salt: sodium) , is 140.2 to 141 °C

Measured melting point of "COc1cc(-c2ccccc2)c(OCC(=O)O)c(-c2ccccc2)c1" : 143 to 145 °C

Query "Cc1cc(COCCCCCCNC(=O)c2cc(-c3ccc(F)c(Cl)c3)c(OCC(=O)O)c(-c3ccc(F)c(Cl)c3)c2)c(C)o1" yields melting point of 90 to 91.2 °C

---

# melting point annotations

Examples with their reported melting point follow.
INSERT INTO assay_data (molecule, recorded_result) VALUES
  ('O=C(O)COc1c(-c2cccc(Cl)c2)cc(C(=O)NCCCCCCCCn2ccc3ccccc32)cc1-c1cccc(Cl)c1', '> 84 °C (dec.)'),
  ('O=C(O)COc1c(-c2cccc(Cl)c2)cc(C(=O)NCCCCCCc2ccccc2)cc1-c1cccc(Cl)c1', '178 to 181 °C'),
  ('Cc1cc(C)cc(-c2cc(C(=O)NCCCCCCCc3ccccc3)cc(-c3cc(C)cc(C)c3)c2OCCCC(=O)O)c1', '64 to 66 °C');

Let us move to another entry and its melting point.
Entry under test: "CCCCCCCCCCCCNC(=O)c1cc(Br)c(OCCNC(N)=O)c(-c2cccc(C(F)(F)F)c2)c1" . Its melting point was 122.5 to 125.1 °C

---

Reported melting point values are given for each entry in this list.

Below: 2 molecules and their reported melting point.
INSERT INTO assay_data (molecule, recorded_result) VALUES
  ('Cc1cccc(-c2cc(C(=O)NCCCCCCCc3ccccc3)cc(-c3cccc(C)c3)c2OCC(=O)O)c1 [Example 145]', '58 to 62 °C'),
  ('O=C(O)COc1c(-c2cccc(C(F)(F)F)c2)cc(C(=O)NCCCCCCCCc2ccccc2)cc1-c1cccc(C(F)(F)F)c1 [Example 7]', '143 to 145.4 °C');

Per the records, this molecule ( N#Cc1cccc(OCCCCCCCCNC(=O)c2cc(-c3cccc(Cl)c3)c(OCC(=O)O)c(-c3cccc(Cl)c3)c2)c1 [Example 89] ) has melting point equal to > 61 °C (dec.)

Field melting point (entry CCCCCCCCCCCCNC(=O)c1cc(Br)c(OCC(=O)O)c(-c2ccccc2F)c1 [Example 156] ) reads 128 to 138 °C

---

Value type: melting point

// solved cases for melting point follow
INSERT INTO assay_data (structure_smiles_string, value_type, recorded_result) VALUES
  ('O=C(O)COc1c(-c2cccc(F)c2)cc(C(=O)NCCCCCCCCc2ccccc2)cc1-c1cccc(F)c1', 'melting point', '> 58 °C (dec.)'),
  ('O=C(O)COc1c(-c2cccc(Cl)c2)cc(C(=O)NCCc2ccc(Br)cc2)cc1-c1cccc(C(F)(F)F)c1', 'melting point', '> 102 °C (dec.)');

The recorded melting point for "CCCCCCCCCCCCNC(=O)c1cc(Br)c(OCCn2ncnn2)c(-c2cccc(C(F)(F)F)c2)c1" is 75.6 to 76.2 °C

In plain terms, "COc1ccc(-c2cc(C(=O)N(C)CCCCCCCCc3ccccc3)cc(-c3cccc(Cl)c3)c2OCC(=O)O)cc1" has a documented melting point of 66.8 to 67.5 °C

Value of measured melting point for the entry "O=C(O)COc1c(-c2cccc(Cl)c2)cc(C(=O)NCCCc2ccccc2)cc1-c1cccc(C(F)(F)F)c1" : > 106 °C (dec.)

# melting point of "CC(C)(C)c1ccc(COCCCCCCNC(=O)c2cc(-c3cccc(C(F)(F)F)c3)c(OCC(=O)O)c(-c3cccc(C(F)(F)F)c3)c2)cc1" = 156 to 158 °C

// melting point lookup, molecule = "O=C(O)COc1c(Br)cc(C(=O)NCCCCCCc2ccccc2)cc1-c1ccccc1F" , result: > 84 °C (dec.)

---

# Tested system: recombinant, human protein tyrosine phosphatase (PTP) 1B (hPTP1B) (Homo sapiens, UniProt P18031)
# Sequence (P18031 1-435): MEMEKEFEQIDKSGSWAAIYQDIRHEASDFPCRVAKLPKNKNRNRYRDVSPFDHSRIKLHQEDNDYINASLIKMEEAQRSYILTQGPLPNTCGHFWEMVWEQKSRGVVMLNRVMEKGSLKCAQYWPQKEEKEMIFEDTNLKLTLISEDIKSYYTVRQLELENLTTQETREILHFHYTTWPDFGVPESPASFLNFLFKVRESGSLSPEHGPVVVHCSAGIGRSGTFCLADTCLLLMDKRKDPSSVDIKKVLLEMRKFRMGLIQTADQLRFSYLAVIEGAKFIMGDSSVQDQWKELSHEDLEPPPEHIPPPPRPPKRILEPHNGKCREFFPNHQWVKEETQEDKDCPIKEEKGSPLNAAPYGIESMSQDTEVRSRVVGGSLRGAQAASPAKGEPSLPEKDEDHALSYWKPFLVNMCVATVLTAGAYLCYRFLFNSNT
# Assay notes: Inhibition of tri-phosphorylated insulin receptor dodecaphosphopeptide dephosphorylation by hPTP1B
# Experimental context: 50 μM IR triphosphopeptide substrate, 5 min preincubation and 5 min reaction at 37° C., malachite green-ammonium molybdate phosphate detection
# IC50 per entry
Kindly provide the numeric value in µM only, without the unit symbol.

INSERT INTO results (structure_smiles_string, value_type, recorded_result) VALUES
  ('COc1ccc(-c2cc(-c3ccc(C(=O)NCCCCCCCc4ccccc4)cc3)cc(-c3ccc(OC)cc3)c2OCc2ccc(C(=O)O)cc2)cc1', 'IC50', 0.102),
  ('CCCCCCCCCCCCNC(=O)c1cc(-c2ccccc2F)c(OCC(=O)O)c(-c2ccccc2F)c1', 'IC50', 0.3),
  ('O=C(O)COc1c(-c2cc(Cl)cc(Cl)c2)cc(C(=O)NCCCCCCCCc2ccccc2)cc1-c1cc(Cl)cc(Cl)c1', 'IC50', 0.054),
  ('CN(CCCCCCCCc1ccccc1)C(=O)c1cc(-c2cccc(Cl)c2)c(OCC(=O)O)c(-c2cccc(Cl)c2)c1', 'IC50', 0.179),
  ('CCCCCCCCCCCCNC(=O)c1cc(-c2cccc(OC)c2)c(OCC(=O)O)c(-c2cccc(OC)c2)c1', 'IC50', 0.115);

Noted for "O=C(NCCCCCCCCc1ccccc1)c1cc(Br)c(O)c(-c2cccc(C(F)(F)F)c2)c1" : its IC50 reads 0.64

Entry "O=C(NCCCCCCCCc1ccccc1)c1cc(Br)c(OCc2ccc(C(=O)O)c(O)c2)c(-c2cccc(C(F)(F)F)c2)c1" , IC50 reported as 0.083

---

# Tested system: recombinant, human protein tyrosine phosphatase (PTP) 1B (hPTP1B) (Homo sapiens)
# Sequence (P18031 1-435): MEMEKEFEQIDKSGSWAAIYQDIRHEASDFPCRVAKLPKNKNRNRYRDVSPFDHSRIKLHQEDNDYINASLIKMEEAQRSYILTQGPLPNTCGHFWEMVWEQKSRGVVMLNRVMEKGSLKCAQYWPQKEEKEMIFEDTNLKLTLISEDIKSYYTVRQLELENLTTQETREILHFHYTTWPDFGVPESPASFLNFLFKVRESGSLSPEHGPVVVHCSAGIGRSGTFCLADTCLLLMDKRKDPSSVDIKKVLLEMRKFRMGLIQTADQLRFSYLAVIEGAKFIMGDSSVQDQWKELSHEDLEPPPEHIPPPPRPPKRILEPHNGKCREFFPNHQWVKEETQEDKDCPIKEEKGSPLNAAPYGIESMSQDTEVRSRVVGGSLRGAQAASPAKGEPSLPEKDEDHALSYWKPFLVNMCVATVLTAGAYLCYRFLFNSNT
# Assay notes: Inhibition of tri-phosphorylated insulin receptor dodecaphosphopeptide dephosphorylation by hPTP1B
# Experimental context: 50 μM IR triphosphopeptide substrate, 5 min preincubation and 5 min reaction at 37° C., malachite green-ammonium molybdate phosphate detection
Value type: IC50 (nM)
Reply numerically in nM, unit not repeated.

INSERT INTO results (molecule, value_type, recorded_result) VALUES
  ('CC(C)(C)c1ccc(COCCCCCCNC(=O)c2cc(-c3cccc(C(F)(F)F)c3)c(OCC(=O)O)c(-c3cccc(C(F)(F)F)c3)c2)cc1', 'IC50', 320),
  ('O=C(NCCCCCCCCc1ccccc1)c1cc(-c2cccc(C(F)(F)F)c2)c(OCCCCc2nnn[nH]2)c(-c2cccc(C(F)(F)F)c2)c1', 'IC50', 217);

Now look at this one.
Looking up COc1ccc(-c2cc(C(=O)NCCCCCCCCc3ccccc3)cc(-c3ccc(OC)cc3)c2OCC(=O)[O-])cc1.[Na+] [Example 23, sodium salt] , I see its IC50 listed as 365
